System: DeltatarO mutant
Test: S. aureus survival, RN4220 and DeltatarO strains – OD600, teichoic acid synthesis inhibitors, primary screen (AID 463173)
Conditions: S. aureus RN4220 wild type/DeltatarO growth, OD600, 18 h, screened at 18.75 µg/mL (by protocol)
The campaign covered roughly 52,000 compounds. About 4,300 (8.3%) were called active. Cut-off read from the data, not from the text of the source: active = survival mostly below about 52% (no sharp cut-off); inactive = mostly above about 56%. Many of the other results were omitted from the sample, so actives are more common in it than they were.
Pick one: 1 (active), 0 (inactive)

[ask] Hi, sorry to bother you, what did the test record for CCSc1nnc(C2CCCN(CC(=O)Nc3nc(C)cs3)C2)n1C (stereo not given) ?
[reply] 0

[ask] Hi, sorry to bother you, what did the test record for Cc1nn(CCCC(=O)Nc2cc(C(F)(F)F)ccc2Cl)c(=O)c2c1sc1ccccc12 ?
[reply] 0

[ask] Hi, sorry to bother you, what did the test record for CCc1ccc(N(CC)C(=O)Cn2nc(Cc3cccnc3)c3ccccc3c2=O)cc1 ?
[reply] 0

[ask] Hi, sorry to bother you, what did the test record for Cc1ccc(CNC(=O)CN(c2cccc(C)c2C)S(=O)(=O)c2ccccc2)cc1 ?
[reply] 0

[ask] Hi, sorry to bother you, what did the test record for CC(=O)c1ccc(N2CCN(S(=O)(=O)c3ccc(-c4cc(C)no4)s3)CC2)cc1 ?
[reply] 1

[ask] Hi, sorry to bother you, what did the test record for Cc1cc2c(cc1S(=O)(=O)CCC(=O)N1CCC(C)CC1)OCC(=O)N2 ?
[reply] 0

[ask] Hi, sorry to bother you, what did the test record for Cc1cccc(NC(=O)Cn2c(=O)n(CCCCCC(=O)NCc3ccccc3)c(=O)c3sccc32)c1 ?
[reply] 0

[ask] Hi, sorry to bother you, what did the test record for O=C(O)C(=Cc1ccc(-c2cccc(C(F)(F)F)c2)o1)C(=O)O ?
[reply] 0

[ask] Hi, sorry to bother you, what did the test record for Cc1cccc(N(CC(=O)NCCSCc2ccccc2)S(=O)(=O)c2ccccc2)c1C ?
[reply] 0

[ask] Hi, sorry to bother you, what did the test record for Cc1cc(-c2ccc(S(=O)(=O)N3CCN(c4ccc(Cl)cc4)CC3)s2)on1 ?
[reply] 0
